The reported measurements were obtained from paper PMC6917776.

assay: CelltiterGlo viability cell assay; type: cell-based; conditions: human, HCC1143 breast cancer cells, HCC1143, 6 day, 0.1 uM; read-out: viability Replicate 1
assay_metric: viability at 6 day, 0.1 µM (%)
Give just the numeric value; % need not be written.

[Q] Give the measured viability at 6 day, 0.1 µM for "COc1cc(OC)cc(-c2noc(N3CCN(C)C4(CCN(c5ccnc(C)c5)CC4)C3)n2)c1"
[A] 103

====

assay: CelltiterGlo viability cell assay; type: cell-based; settings: human, MDA-MB-436 breast cancer cells, MDA MB436, 6 day, 0.01 uM; read-out: viability Replicate 3
assay_metric: viability at 6 day, 0.01 µM (%)
Note: unit % is implicit; provide only the numeric part.

[Q] Assign viability at 6 day, 0.01 µM to the following record: "COc1cc(OC)cc(-c2noc(N3CCN(C)C4(CCN(c5ccnc(C)c5)CC4)C3)n2)c1"
[A] 107
